- study-target: Wheat HPPD (Triticum aestivum, UniProt A0A3B6NLC6)
- Sequence (A0A3B6NLC6 entry or part of it): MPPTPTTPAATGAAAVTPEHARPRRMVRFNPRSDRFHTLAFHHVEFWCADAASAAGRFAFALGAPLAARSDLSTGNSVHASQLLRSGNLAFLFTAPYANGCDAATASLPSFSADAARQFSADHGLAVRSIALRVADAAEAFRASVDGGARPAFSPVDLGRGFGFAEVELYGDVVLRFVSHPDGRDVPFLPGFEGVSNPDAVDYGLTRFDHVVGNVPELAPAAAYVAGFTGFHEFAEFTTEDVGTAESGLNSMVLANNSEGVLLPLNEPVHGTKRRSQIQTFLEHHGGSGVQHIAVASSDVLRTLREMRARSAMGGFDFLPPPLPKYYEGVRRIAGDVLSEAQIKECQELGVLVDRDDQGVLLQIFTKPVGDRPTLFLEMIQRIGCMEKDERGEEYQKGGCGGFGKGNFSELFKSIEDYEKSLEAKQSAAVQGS
- protocol-description: Dissociation of enzyme/inhibitor complexes by exchange with 14C-labelled inhibitor (koff; Kd = koff/kon)
- Format: binding
- study-conditions: Kd, value obtained + glycerol (in parentheses)
pKd: −log10 of the molar value.
measurement-type: pKd

- molecule: "CS(=O)(=O)c1ccc(C(=O)C2C(=O)CCCC2=O)c([N+](=O)[O-])c1 [Structure I, reference compound]"
  assay-result: 8.20

* * *

- study-target: Wheat HPPD (Triticum aestivum, UniProt A0A3B6NLC6)
- protocol-description: Dissociation of enzyme/inhibitor complexes by exchange with 14C-labelled inhibitor (koff; Kd = koff/kon)
- Type: binding
- study-conditions: value obtained + glycerol (in parentheses); read-out: Kd
- Excerpt: Herbicidal inhibitors of HPPD are found here to have generally low values of koff (in the range less than 0.0003 s^−1, often less than 0.000001 s^−1). […] Many methods such as radiometric, fluorimetric, NMR, fluorescence depolarisation, EPR, Mossbauer, UV/VIS spectrophotometry etc. or phonon resonance can, in principle, be used to monitor the enzyme/ligand exchange reactions and, particularly in this case where the enzyme contains an iron atom at the ligand binding site. […]
pKd: −log10 of the molar value.

- compound: "CS(=O)(=O)c1cc(C(F)(F)F)ccc1C(=O)C(C#N)C(=O)C1CC1 (stereo not shown) [Structure IV, reference compound]"
  pKd: 9.22

* * *

Consider the following molecules and their measured koff readings.
- study-target: Arabidopsis HPPD (Arabidopsis thaliana, UniProt P93836)
- Construct: made in house; host or cells: E. coli BL21 (DE3) codon+ RP
- Sequence (P93836 whole entry): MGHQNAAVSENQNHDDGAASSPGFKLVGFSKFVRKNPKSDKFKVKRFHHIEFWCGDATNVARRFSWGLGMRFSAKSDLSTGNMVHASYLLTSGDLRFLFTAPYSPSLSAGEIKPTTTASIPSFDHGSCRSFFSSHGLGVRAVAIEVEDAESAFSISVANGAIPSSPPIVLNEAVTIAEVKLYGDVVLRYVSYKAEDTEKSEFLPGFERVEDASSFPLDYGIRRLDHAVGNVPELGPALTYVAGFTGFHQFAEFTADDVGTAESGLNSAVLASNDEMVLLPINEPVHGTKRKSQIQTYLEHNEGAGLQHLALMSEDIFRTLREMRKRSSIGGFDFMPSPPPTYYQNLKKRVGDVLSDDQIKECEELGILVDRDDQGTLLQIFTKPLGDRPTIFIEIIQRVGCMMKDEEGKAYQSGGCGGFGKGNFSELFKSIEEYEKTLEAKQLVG
- protocol-description: Dissociation of enzyme/inhibitor complexes by exchange with 14C-labelled inhibitor (koff; Kd = koff/kon)
- Type: binding
- study-conditions: − glycerol

- molecule: "Cc1nc(C(F)(F)F)ccc1C(=O)C1C(=O)C2CCC(C2)C1=O (stereo not shown) [Structure II]"
  study-target: "Arabidopsis HPPD (Arabidopsis thaliana, UniProt P93836)"
  koff, s⁻¹: "1.16e-05"
- molecule: "CC1(C)C(=O)C(C(=O)c2ccc(Cl)cc2[N+](=O)[O-])C(=O)C(C)(C)C1=O [Structure V]"
  study-target: "Arabidopsis HPPD (Arabidopsis thaliana, UniProt P93836)"
  koff, s⁻¹: "1.25e-06"
- molecule: "CCOCc1nc(C(F)(F)F)ccc1C(=O)C1C(=O)C2CCC(C2)C1=O (stereo not shown) [Structure III]"
  study-target: "Arabidopsis HPPD (Arabidopsis thaliana, UniProt P93836)"
  koff, s⁻¹: "1.1e-05"
- molecule: "Cc1nc(C(F)(F)F)ccc1C(=O)C1C(=O)C(C)(C)C(=O)C(C)(C)C1=O [Structure VII]"
  study-target: "Arabidopsis HPPD (Arabidopsis thaliana, UniProt P93836)"
  koff, s⁻¹: "1e-06"

* * *

- study-target: P. fluorescens HPPD (Pseudomonas fluorescens, UniProt A0ACG8AE61)
- Sequence (A0ACG8AE61 entry or part of it): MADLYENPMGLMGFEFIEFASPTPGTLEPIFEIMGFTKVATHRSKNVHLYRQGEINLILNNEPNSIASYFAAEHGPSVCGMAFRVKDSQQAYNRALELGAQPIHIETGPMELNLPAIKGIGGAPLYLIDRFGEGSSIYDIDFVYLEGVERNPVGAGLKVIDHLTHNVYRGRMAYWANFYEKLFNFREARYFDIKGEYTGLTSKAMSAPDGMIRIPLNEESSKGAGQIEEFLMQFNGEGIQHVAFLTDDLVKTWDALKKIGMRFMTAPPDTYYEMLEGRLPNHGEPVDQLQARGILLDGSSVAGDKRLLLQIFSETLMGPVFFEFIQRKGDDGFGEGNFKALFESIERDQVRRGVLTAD
- protocol-description: Dissociation of enzyme/inhibitor complexes by exchange with 14C-labelled inhibitor (koff; Kd = koff/kon)
- Type: binding
- study-conditions: Kd, value obtained + glycerol (in parentheses)

- molecule: "CS(=O)(=O)c1ccc(C(=O)C2C(=O)CCCC2=O)c([N+](=O)[O-])c1 [Structure I, reference compound]"
  Kd, nM: 0.2

* * *

- study-target: Wheat HPPD (Triticum aestivum, UniProt A0A3B6NLC6)
- protocol-description: Dissociation of enzyme/inhibitor complexes by exchange with 14C-labelled inhibitor (koff; Kd = koff/kon)
- Type: binding
- study-conditions: Kd, without glycerol; Kd = koff/kon
- Excerpt: Herbicidal inhibitors of HPPD are found here to have generally low values of koff (in the range less than 0.0003 s^−1, often less than 0.000001 s^−1). […] Many methods such as radiometric, fluorimetric, NMR, fluorescence depolarisation, EPR, Mossbauer, UV/VIS spectrophotometry etc. or phonon resonance can, in principle, be used to monitor the enzyme/ligand exchange reactions and, particularly in this case where the enzyme contains an iron atom at the ligand binding site. […]
pKd: −log10 of the molar value.
Response key: Y means pKd >= 9; N means pKd < 9.

- compound: "CS(=O)(=O)c1ccc(C(=O)C2C(=O)CCCC2=O)c([N+](=O)[O-])c1 [Structure I, reference compound]"
  class: "N"
- compound: "Cc1nc(C(F)(F)F)ccc1C(=O)C1C(=O)C2CCC(C2)C1=O (centres unmarked)"
  class: "N"
- compound: "Cc1nc(C(F)(F)F)ccc1C(=O)C1C(=O)C(C)(C)C(=O)C(C)(C)C1=O"
  class: "Y"
- compound: "CC1(C)C(=O)C(C(=O)c2ccc(Cl)cc2[N+](=O)[O-])C(=O)C(C)(C)C1=O"
  class: "Y"
- compound: "Cc1cc(C#N)ccc1C(=O)C1C(=O)C(C)(C)C(=O)C(C)(C)C1=O"
  class: "Y"

// data source = patent US20090172831A1
